# Test system: Staphylococcus aureus ATCC 6538
# test-description: Test for adequate preservation (European Pharmacopea), 1,2-diols and 1,2-diol mixtures in O/W emulsion
# Assay type: cell-based
# recorded-conditions: 7 d; 3% diol(s) in O/W emulsion
quantity-name: germ count Staph. aureus (CFU/ml)
Report the figure in CFU/ml without appending any unit label.

Use the examples below as a reference point.
molecule	target-desc	germ count Staph. aureus, CFU/ml
CCCC(O)CO (stereo not shown)	Staphylococcus aureus ATCC 6538	0
CCCCC(O)CO (stereo not shown)	Staphylococcus aureus ATCC 6538	0
CCCCCCC(O)CO (stereo not shown)	Staphylococcus aureus ATCC 6538	0

Would you kindly look at the next entry?
Please report germ count Staph. aureus for the following molecule: CCCCCCCCC(O)CO (stereo not shown) 0
